Field pKi: reported value for Beta-secretase 1 (Homo sapiens); entries drawn from several documents.
// scale note: pKi = -log10(conc_M); give the bare number

Please review the entries below; each comes with its answer.
INSERT INTO measurements (molecule, assaysystem, resulttype, numericresult) VALUES
  ('COc1ccc(C(=O)Nc2ccc(F)c([C@@]3(C)NC(=N)N(C)S(=O)(=O)[C@@]34CCN(CC3CC(OC)C3)C4)c2)nc1 (stereo partly drawn)', 'Beta-secretase 1 (Homo sapiens)', 'pKi', 8.40),
  ('Cc1cc(C#N)cnc1C(=O)Nc1ccc(F)c([C@@]2(C(F)F)N=C(N)CCC2(F)F)c1', 'Beta-secretase 1 (Homo sapiens)', 'pKi', 8.11),
  ('[2H]C1([2H])Oc2cnc(C(=O)Nc3cc(F)c(F)c(C4(CF)CCC(C)(S(C)(=O)=O)C(N)=N4)c3)cc2OC1([2H])[2H] (stereo not drawn)', 'Beta-secretase 1 (Homo sapiens)', 'pKi', 9.31),
  ('CN1C(=N)N[C@]2(C)c3cc(NC(=O)c4ccc(C#N)cn4)ccc3OCC[C@@H]2S1(=O)=O', 'Beta-secretase 1 (Homo sapiens)', 'pKi', 9.00);

Next:
Which measured pKi value corresponds to CN1C(=N)N[C@](C)(c2sc(-c3cccc(-n4nccn4)c3)cc2Cl)CS1(=O)=O ? 7.52
